This listing pairs compounds with measured melting point.
MEASURED ENDPOINT: melting point

Cc1noc(C)c1-c1cc(OC2SCC(O)C(O)C2O)ccn1 (stereo unspecified) = 143 to 147 °C
CN(C)C1(c2cccs2)CC=C(c2[nH]c3ccccc3c2CCc2ccncc2)CC1 (stereo unspecified) = 189 to 193 °C
CCOC(=O)C1C(=O)N(C)c2ccc(Cl)cc2S1(=O)=O (stereo unspecified) = 86 to 91 °C
OCc1nc2cc(Br)cnc2[nH]1 = 230 to 233 °C
Cc1ccc(C)n1-c1ccc2ccc3[nH]c(=O)c(=O)n(CC(=O)NCc4ccccc4)c3c2c1 = 243 to 244 °C
Cc1cc(C)n2nc(S(=O)(=O)Cl)c(C#N)c2n1 = 138 °C
C#CCN1C(=O)CCc2cc(F)c(-n3nc4ccc(Cl)cn4c3=O)cc21 = 200 to 202 °C
Cc1nn(-c2ccccn2)c2ncc(C(=O)NCc3ccccc3)c(O)c12 = > 300 °C
CCN(CC)CC1CCCCN1CC#CCN1c2ccccc2C(=O)Nc2cccnc21 (stereo unspecified) = 132 to 134 °C
O=C1OC(CCl)CN1c1ccc(S(=O)(=O)C(F)(F)F)cc1 (stereo unspecified) = 121 to 123 °C
COC(=O)c1c(SCc2ccc(OC)cc2)nc(C)n1Cc1cc2c(cc1Cl)OCO2 = 169 °C
O=S1(=O)NC2CCCN2c2ccc(O)cc21 (stereo unspecified) = 237 to 242 °C
COC(=O)Nc1nc2ccc(O)cc2[nH]1 = 300 °C
CC(=O)OCc1[nH]c(C(=O)OCc2ccccc2)c(C)c1C(C)=O = 97 to 100 °C
COc1cc(C#Cc2cc(OC)c(OC(C)C)cc2OC(=O)CI)ccc1OC(C)C = 127 to 128 °C
N=C(NC(=O)Nc1ccccc1[N+](=O)[O-])c1ccccc1 = 144 to 146 °C
C[C@H](NS(=O)(=O)c1ccc(-c2c(C#N)c3cc(C(F)(F)F)cnc3n2-c2ccccc2)nc1)C(F)(F)F = 186 to 188 °C
O=Cc1cccc(-c2nnn[nH]2)c1 = 185 to 189 °C
CCCCNC(=O)OC1c2cc(C(F)(F)F)ccc2C(=O)N1c1ccc2ccc(Cl)nc2n1 (stereo unspecified) = 120 °C
O=C(c1cc(Cc2ccccc2)cc(Cn2ccnc2)c1)c1cc(Cl)c2cccnc2c1O = 148 to 150 °C
O=C(O)CCCc1cnoc1-c1ccccc1 = 67 to 68 °C

====

MEASURED ENDPOINT: melting point

C[C@H](Nc1ncnc2[nH]cnc12)c1oc2ccc(F)cc2c(=O)c1-c1ccccc1 = 196 to 198 °C
COc1ccc(S(=O)(=O)C(Nc2c(Br)cc(C)cc2C(=O)O)c2cccnc2)cc1 (stereo not given) = 198 °C
O=C(C1CCCCC1)N1CC2CC2(c2ccccc2)C1 (stereo not given) = 81 to 82 °C
NC(=O)c1ccc(-c2ccc3nnn(Cc4cc5cccnc5cc4F)c3n2)cc1F = 206 to 208 °C
CCOC(=O)C1=C(C)NC(C(OCC)OCC)=C(C(=O)OCC)C1c1ccccc1Cl (stereo not given) = 75 to 77 °C
CCSc1ccc(-c2ccncc2)c2c1C(=O)CC(C)C2 (stereo not given) = 145 to 147 °C
Cc1cc(-n2ccnc2)c2cccc(OCc3c(Cl)ccc(S(=O)(=O)N4CCCC4C(=O)NCC4CCN(CCC(=O)OC(C)(C)C)CC4)c3Cl)c2n1 (stereo not given) = 92 °C
Oc1ccc(CCc2cc(O)c(O)c(O)c2)cc1 = 180 to 188 °C
CC(C)SC(C)(C)C(=O)O = 51.5 to 52.5 °C
CCc1nc2c(C)cc(C)nc2n1Cc1ccc(C(CCNS(=O)(=O)C(F)(F)F)c2ccccc2)cc1 (stereo not given) = 64 to 69 °C
Cc1cc(Cl)cc(C(=O)NC(C)CSC[Si](C)(C)C)c1NC(=O)c1cc(Br)nn1-c1ncccc1Cl (stereo not given) = 151 to 153 °C
COC(=O)c1cccc(C2C(C#N)=C(N)Oc3c2ccc2cnccc32)c1 (stereo not given) = 229 to 230 °C
Cc1ncc(CN2CCN(CCc3ccccc3)CC2)c(N)n1 = 162 to 165 °C
Oc1c(Br)cc(-c2cccc3sc4c(Br)cccc4c23)cc1Br = 118 to 119 °C
Cc1nc2ccc3ccc(CNc4ccc(C(=O)O)c(F)c4)cc3c2c(=O)[nH]1 = > 250 °C
CCN(CC)CCCNC(=O)N1CCCC(S(=O)(=O)c2ccccc2)C1 (stereo not given) = 56 to 58.5 °C
Cc1ccc(-c2nc3ccc(C(=O)O)cn3c2CN(C)C(=O)CC(C)C)cc1 = 227 to 229 °C
CC1(C)Oc2ccc(C#N)cc2C(c2cccn(Cc3ccccc3)c2=O)C1O (stereo not given) = 120 to 122 °C
CC1(C)CC(O)CC(C)(C)N1CC(O)CO (stereo not given) = 97 to 99 °C
O=C(O)CCCCCSc1ccc(NS(=O)(=O)c2ccc(Cl)cc2)cc1 = 160 to 163 °C

====

Entries annotated with measured melting point
MEASURED ENDPOINT: melting point

Clc1nnc(C(Cl)(Cl)Cl)s1 = 41 °C
Cc1oc2cccc(OCC#N)c2c1C = 50 to 52 °C
CC(=O)N1CCCC(=O)c2ccc(Cl)cc2CCC1=O = 154 to 156 °C
COc1ccc(NC(C)C)c(S)c1 = 68 to 69 °C
O=C(Nc1ccc(F)cc1F)Oc1ccccc1 = 82 to 84 °C
COc1cc(O)c(C(=O)C=Cc2ccc(C)o2)c(OC)c1 = 103 °C
O=C1NCC=NN1c1ccc(C(CCl)c2ccc(Cl)cc2)c(C(F)(F)F)c1 (configuration not stated) = 157 to 158 °C
CCc1ccc(N2CCN(c3c(C)c4c(c(OC)c3C)OC(C)(C)C4)CC2)cc1 = 157 to 160 °C
CCCN(CCC)c1c([N+](=O)[O-])cc(C)c(C)c1[N+](=O)[O-] = 42 to 43.5 °C
Cc1ccc(S(=O)(=O)Oc2cccc3c2CCCN3)cc1 = 112 to 113 °C
O=S(=O)(Nc1ccc2c(OCc3ccc4ccccc4c3)cccc2c1)C(F)(F)F = 140 to 142 °C
Cc1cn(CC(=O)N(CCNC(=O)OC(C)(C)C)CC(=O)O)c(=O)[nH]c1=O = 142 to 147 °C
Oc1ccc(-n2ccc(Nc3ccccc3)n2)cc1 = 182 to 185 °C
C#Cc1c(OC)nc(C)nc1C(F)(F)F = 77 °C
O=C(O)c1sc(Cl)nc1C(F)(F)F = 131 to 132 °C
CCOC(=O)c1cnc2c([N+](=O)[O-])cc(CN3CCOCC3)cc2c1O = 214 to 216 °C
N#CC1(C(O)(Cn2cncn2)c2ccc(Cl)cc2)CC1 (configuration not stated) = 107 °C
O=C(Nc1cccc(Oc2ccc(Cl)cc2)c1)c1ccn2c1CSC2c1cccnc1 (configuration not stated) = 140 °C
CCCCCC1(c2ccc(C)cc2)OCc2c(O)c(C)nc(Cl)c21 (configuration not stated) = 180 °C
CC(C)c1cc(CCC(=O)NCc2cccc(NC(=N)c3cccs3)c2)cc(C(C)C)c1O = 144 to 145 °C
CCOc1cc(-c2ccccc2)nc2nn(C)cc12 = 170 to 171 °C
CC1CCC(N(CC2CCCC(CN(C(=O)Nc3ccc(N(C)C)cc3)C3CCC(C)CC3)C2)C(=O)Nc2ccc(N(C)C)cc2)CC1 (configuration not stated) = 106 to 110 °C

====

MEASURED ENDPOINT: melting point

COc1ccc(/C=C(\C#N)c2c(Cl)cccc2Cl)cc1OC1CCCC1 = 164 to 166 °C
Cc1ccccc1S(=O)(=O)Nc1onc(C)c1Br = 93 to 96 °C
Cn1c(=O)c(-c2ccc(Cl)cc2Cl)cc2c3cc(-c4nc(NC(=O)C5CC5)no4)ccc3n(C)c21 = 292 to 295 °C
Cc1sc(-c2ccccc2)nc1COc1ccc(C=O)cc1 = 118 to 119 °C
CNc1nc(-c2cccc(NC(=O)c3cccc(O)c3)c2)c2cc(OC)c(OC)cc2n1 = 265 to 267 °C
O=C(O)CC1CCCN(C(=O)c2ccc(NC(=O)COc3ccccc3)cc2)c2ccccc21 (centres undefined) = 102 to 106 °C
Cc1cccc2c(=O)[nH]c(N3CCC(N(C)C)CC3)cc12 = 217 to 218 °C
CCCCCCCCCCCCCCCCCCOc1cc(C(=O)O)cc([N+](=O)[O-])c1 = 101 to 103 °C
CN1CCN2c3ccc(Cl)cc3C(c3ccco3)=[N+]([O-])CC2C1 (centres undefined) = 202 to 204 °C

====

melting point: recorded values
MEASURED ENDPOINT: melting point

COc1ccc(CN2CCC(c3ccc(-c4cccc(N)n4)cc3)CC2)cc1OC = 150 to 165 °C
O=C(N[C@H]1CC[C@H](CCN2CCN(c3nccc4c3CCO4)CC2)CC1)c1ccc(-c2cccnc2)cc1 = 218 °C
COc1cc2c(cn1)OCC21C(=O)N(CC2CCCO2)c2ccccc21 (stereo not given) = > 250 °C
CCCc1nn2ncc(C(=O)O)c2n1Cc1ccc(-c2ccccc2-c2nc(=O)o[nH]2)cc1 = 223 to 225 °C
COc1cc(-c2csc(Br)c2Br)cc2oc(=O)c(C)c(C)c12 = 194 to 196 °C
CN(C(N)=O)[C@@H]1c2cc(C#N)ccc2OC(C)(C)[C@H]1O (relative stereo) = 135 to 137 °C
c1ccc(CN2CCN(Cc3n[nH]c4c3CCc3ccccc3-4)CC2)cc1 = 158 to 160 °C
CCCN(CCC)C1Cc2c[nH]c3ccc(C(C)=O)c(c23)C1 (stereo not given) = 148 to 150 °C
CN(Cc1ccc(OC(F)(F)F)cc1)C(=O)OC[C@@]1(C)Cn2cc([N+](=O)[O-])nc2O1 = 123 to 124 °C
Cn1cc2c3c(c(Cl)cc2n1)CCC3=CC#N = 224 to 226 °C
COCCOc1ccc2[nH]c(=O)n(C3CCCCC3)c2c1 = 182 °C
CC(C)c1cccc(C(C)C)c1NC(=O)CNC(c1ccccc1)c1cccc2ccccc12 (stereo not given) = 149 to 151 °C
O=C(O)Cc1c(C(=O)O)c2cc(Oc3ccc(C(F)(F)F)cc3)ccc2n1-c1ccc(C2CCNCC2)cc1 = 256 to 258 °C
COc1ccc(/C=C(\C#N)c2cccc(F)c2)cc1OC1CCCC1 = 114 to 116 °C
CC1(C)[C@@H](C(=O)O)[C@@H]1C(=O)O (relative stereo) = 217 °C
Cc1c(-c2nc(-c3c(F)cccc3Cl)nn2C)csc1Br = 133 to 134 °C
COC(=O)c1cc2cc(OC)ccc2cc1/N=C/N(C)C = 160 to 162 °C
C=C1c2c(C)c(N3CCN(c4ccc(OC)cc4)CC3)c(C)c(C)c2OC1(C)C = 134 to 136 °C
Cc1nnc(-c2ccc3occ(-c4ccc(C(=O)N5CCCC5)c(F)c4)c3c2)o1 = 195 to 196 °C
CC(C)Cc1ccc2sc3cc(CC(=O)O)ccc3c2c1 = 133 to 135 °C

FYI, the data here is from a melting point compilation (Tetko et al.; mined from patent text by program, amines drawn as free bases though some values may be those of a salt).
